- targetOfAssay: human D2R/β-arrestin (Homo sapiens (Human))
- assayText: cell-based
- measurementSetup: cAMP Antagonist, CHO-K1 cell line expressing human D2R/β-arrestin; quinpirole used as agonist
// IC50 lookup, one value per entry

| compound | targetOfAssay | IC50 |
| --- | --- | --- |
| O=C(NC(c1cccc(OC(F)(F)F)c1)c1ccccn1)C1CCN(CCOc2ccccc2)CC1 (centres unmarked) [Compound 118] | human D2R/β-arrestin (Homo sapiens (Human)) | > 30000 nM |
| COc1cccc(C(c2ccccn2)N(C)CC2CCN(CCOc3ccccc3F)CC2)c1 (single isomer, unassigned) [Compound 77a] | human D2R/β-arrestin (Homo sapiens (Human)) | 100 to 1000 nM |
| CC1(C(=O)NC(c2ccc(F)cc2)c2ccccn2)CCN(CCOc2ccccc2)CC1 (single isomer, unassigned) [Compound 69a] | human D2R/β-arrestin (Homo sapiens (Human)) | > 30000 nM |
| CN(CC1CCN(CCOc2ccccc2F)CC1)C(c1ccc2c(c1)OCO2)c1ccccn1 (single isomer, unassigned) [Compound 138a] | human D2R/β-arrestin (Homo sapiens (Human)) | > 30000 nM |
| O=C(NC(c1ccccc1F)c1ccccc1F)C1CCN(CCOc2ccccc2)CC1 [Compound 48] | human D2R/β-arrestin (Homo sapiens (Human)) | > 30000 nM |
| CC(C)(COc1ccccc1)N1CCC(C(=O)NC(c2ccc(F)cc2)c2ccccn2)CC1 (centres unmarked) [Compound 58] | human D2R/β-arrestin (Homo sapiens (Human)) | 10000 to 30000 nM |
| FC(F)(F)c1ccccc1OCCN1CCC2(CC1)CCN(C(c1ccc(Cl)cc1)c1ccccn1)C2 (centres unmarked) [Compound 106] | human D2R/β-arrestin (Homo sapiens (Human)) | 1000 to 10000 nM |
| Fc1ccccc1OCCN1CCC(CNC(c2ccc(Cl)cc2)c2ccccn2)CC1 (centres unmarked) [Compound 121] | human D2R/β-arrestin (Homo sapiens (Human)) | 100 to 1000 nM |
| O=C(NC(c1ccc2c(c1)OC(F)(F)O2)c1ccccn1)C1CCN(CCOc2ccccc2F)CC1 (single isomer, unassigned) [Compound 94b] | human D2R/β-arrestin (Homo sapiens (Human)) | > 30000 nM |
| COc1ccc(OCCN2CCC(C(=O)NC(c3ccc(Cl)cc3)c3ccccn3)CC2)cc1 (centres unmarked) [Compound 13] | human D2R/β-arrestin (Homo sapiens (Human)) | > 30000 nM |
| O=C(NC(c1ccc(Cl)cc1)c1ccccn1)C1CCN(CCOc2ccc(F)cc2F)CC1 (centres unmarked) [Compound 115] | human D2R/β-arrestin (Homo sapiens (Human)) | > 30000 nM |
| CN(CC1(C)CCN(CCOc2ccccc2)CC1)C(c1ccc(Cl)cc1)c1ccccn1 (centres unmarked) [Compound 131] | human D2R/β-arrestin (Homo sapiens (Human)) | > 30000 nM |
| O=C(NC(c1ccc(Cl)cc1)c1ccncc1F)C1CCN(CCOc2ccccc2F)CC1 (single isomer, unassigned) [Compound 91b] | human D2R/β-arrestin (Homo sapiens (Human)) | 100 to 1000 nM |
| COc1cccc(C(NC(=O)C2CCN(CCOc3ccccc3)CC2)c2ccccc2)c1 (centres unmarked) [Compound 146] | human D2R/β-arrestin (Homo sapiens (Human)) | 1000 to 10000 nM |
| O=C(NC(c1ccncc1)c1ccc(Cl)cc1)C1CCN(CCOc2ccccc2)CC1 (centres unmarked) [Compound 112] | human D2R/β-arrestin (Homo sapiens (Human)) | > 30000 nM |
| COc1cccc(C(NC(=O)C2CCN(CCOc3ccc(F)cc3F)CC2)c2ccccn2)c1 (single isomer, unassigned) [Compound 145b] | human D2R/β-arrestin (Homo sapiens (Human)) | 100 to 1000 nM |
| CN(CC1CCN(CCOc2ccccc2F)CC1)C(c1ccc(Cl)cc1)c1ccccn1 (centres unmarked) [Compound 72] | human D2R/β-arrestin (Homo sapiens (Human)) | 1000 to 10000 nM |
| O=C(NC(c1ccc(Cl)cc1)c1ccccn1)C1CCN(CCOc2ccccc2)CC1 (single isomer, unassigned) [Compound 63b] | human D2R/β-arrestin (Homo sapiens (Human)) | 100 to 1000 nM |
| CN(CC1CCN(CCOc2ccccc2)CC1)C(c1ccc(Cl)cc1)c1ccccn1 (single isomer, unassigned) [Compound 79a] | human D2R/β-arrestin (Homo sapiens (Human)) | 1000 to 10000 nM |
| O=C(NC(c1ccc(Cl)cc1)c1ccc(F)cn1)C1CCN(CCOc2ccccc2F)CC1 (single isomer, unassigned) [Compound 92a] | human D2R/β-arrestin (Homo sapiens (Human)) | 100 to 1000 nM |
| CC(C)C(NC(=O)C1CCN(CCOc2ccccc2)CC1)c1ccccn1 (centres unmarked) [Compound 38] | human D2R/β-arrestin (Homo sapiens (Human)) | > 30000 nM |
| Fc1ccc(C(NCC2CCN(CCOc3ccccc3)CC2)c2ccccn2)cc1 (single isomer, unassigned) [Compound 78a] | human D2R/β-arrestin (Homo sapiens (Human)) | 1000 to 10000 nM |
| O=C(NC(c1ccc(F)cc1)c1ccccn1)C1CCN(CCOc2c(F)cccc2F)CC1 (centres unmarked) [Compound 56] | human D2R/β-arrestin (Homo sapiens (Human)) | 100 to 1000 nM |
| COc1cccc(C(NC(=O)C2CCN(CCOc3ccccc3)CC2)c2ccccn2)c1 (centres unmarked) [Compound 35] | human D2R/β-arrestin (Homo sapiens (Human)) | 1000 to 10000 nM |
| COc1cccc(C(c2ccccn2)N(C)CC2CCN(CCOc3ccccc3)CC2)c1 (single isomer, unassigned) [Compound 76b] | human D2R/β-arrestin (Homo sapiens (Human)) | 1000 to 10000 nM |
| COc1cccc(C(NC(=O)C2CCN(CCOc3cc(F)ccc3F)CC2)c2ccccn2)c1 (centres unmarked) [Compound 90] | human D2R/β-arrestin (Homo sapiens (Human)) | 1000 to 10000 nM |
| O=C(NC(c1ccc(F)cc1)c1ccccn1)C1CCN(CCOc2ccc3ncsc3c2)CC1 (centres unmarked) [Compound 55] | human D2R/β-arrestin (Homo sapiens (Human)) | 1000 to 10000 nM |
| COc1cccc(C(NC(=O)C2CCN(CCOc3ccccc3)CC2)c2ccccc2F)c1 (centres unmarked) [Compound 50] | human D2R/β-arrestin (Homo sapiens (Human)) | > 30000 nM |
| O=C(NC(c1ccccc1)c1ccc(Cl)cc1)C1CCN(CCOc2ccccc2)CC1 (centres unmarked) [Compound 39] | human D2R/β-arrestin (Homo sapiens (Human)) | 100 to 1000 nM |

###

pIC50 values, listed per item
- targetOfAssay: human D2R/β-arrestin (Homo sapiens (Human), UniProt P14416)
- Sequence (P14416 whole entry): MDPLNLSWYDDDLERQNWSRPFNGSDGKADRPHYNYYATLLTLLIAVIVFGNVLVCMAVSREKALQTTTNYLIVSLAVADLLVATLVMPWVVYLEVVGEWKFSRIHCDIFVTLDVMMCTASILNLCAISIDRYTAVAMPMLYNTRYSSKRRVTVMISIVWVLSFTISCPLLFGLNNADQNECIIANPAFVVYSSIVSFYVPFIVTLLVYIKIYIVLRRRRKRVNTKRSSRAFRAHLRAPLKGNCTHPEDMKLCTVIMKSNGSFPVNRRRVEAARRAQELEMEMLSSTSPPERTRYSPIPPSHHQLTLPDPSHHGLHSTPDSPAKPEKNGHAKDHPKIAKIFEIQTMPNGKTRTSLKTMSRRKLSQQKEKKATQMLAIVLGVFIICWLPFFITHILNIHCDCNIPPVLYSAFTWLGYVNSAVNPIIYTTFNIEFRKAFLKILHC
- assayText: cell-based
- measurementSetup: cAMP Antagonist, CHO-K1 cell line expressing human D2R/β-arrestin; quinpirole used as agonist
pIC50: −log10 of the molar value.
experimentalEndpoint: pIC50

| compound | experimentalEndpoint | result |
| --- | --- | --- |
| O=C(NC(c1ccccc1F)c1ccccc1F)C1CCN(CCOc2ccccc2Cl)CC1 [Compound 84] | pIC50 | 6.00 to 7.00 |
| CC(C1CCN(CCOc2ccccc2)CC1)N(C)C(c1ccc(Cl)cc1)c1ccccn1 (single isomer, unassigned) [Compound 97b] | pIC50 | 6.00 to 7.00 |
| CC1(C(=O)NC(c2ccc(F)cc2)c2ccccn2)CCN(CCOc2ccccc2F)CC1 (stereo not shown) [Compound 71] | pIC50 | < 4.52 |
| O=C(NC(c1ccccn1)c1ccccn1)C1CCN(CCOc2ccccc2)CC1 [Compound 30] | pIC50 | < 4.52 |
| O=C(NC(c1cccc(Cl)c1)c1ccccn1)C1CCN(CCOc2ccccc2)CC1 (stereo not shown) [Compound 23] | pIC50 | 6.00 to 7.00 |
| O=C(NC(c1ccccn1)C1CCCCC1)C1CCN(CCOc2ccccc2)CC1 (stereo not shown) [Compound 37] | pIC50 | 5.00 to 6.00 |
| O=C(NC(c1ccc(Cl)cc1)c1ccccn1)C1CCN(CCn2ccccc2=O)CC1 (stereo not shown) [Compound 9] | pIC50 | 5.00 to 6.00 |
| O=C(NC(c1ccc(Cl)cc1)c1ccccn1)C1CCN(CCOc2ccccc2OC(F)(F)F)CC1 (stereo not shown) [Compound 68] | pIC50 | > 7.00 |
| COc1cccc(OCCN2CCC(C(=O)NC(c3ccc(Cl)cc3)c3ccccn3)CC2)c1 (stereo not shown) [Compound 12] | pIC50 | 6.00 to 7.00 |
| Fc1ccc(F)c(OCCN2CCC(CNC(c3ccc(Cl)cc3)c3ccccn3)CC2)c1 (single isomer, unassigned) [Compound 89a] | pIC50 | 6.00 to 7.00 |
| O=C(NC(c1ccc(F)cc1)c1ccccc1F)C1CCN(CCOc2ccccc2Cl)CC1 (stereo not shown) [Compound 85] | pIC50 | > 7.00 |
| O=C(NC(c1ccccc1)c1ccc(F)cc1)C1CCN(CCOc2ccccc2)CC1 (stereo not shown) [Compound 45] | pIC50 | > 7.00 |
| COc1ccccc1OCCN1CCC(C(=O)NCc2nccc3ccccc23)CC1 [Compound 108] | pIC50 | < 4.52 |
| O=C(NC(c1ccc(Cl)cc1)c1ccccn1)C1CCN(CCn2ccc(=O)cc2)CC1 (stereo not shown) [Compound 11] | pIC50 | 4.52 to 5.00 |
| O=C1CCc2ccc(OCCCCN3CCCN(c4cccc(Cl)c4Cl)CC3)nc2N1 [UNC9975, reference compound] | pIC50 | 6.00 to 7.00 |
| Clc1cccc(C2CCN(CCCOc3ccc4scnc4c3)CC2)c1Cl [UNC9994, reference compound] | pIC50 | < 4.52 |

Where these numbers come from: patent US10752588B2
